Ref: ChEMBL document CHEMBL4265996

# study_system: CD209 antigen (Homo sapiens, UniProt Q9NNX6)
# Sequence (Q9NNX6 whole entry, the tested form may be a part): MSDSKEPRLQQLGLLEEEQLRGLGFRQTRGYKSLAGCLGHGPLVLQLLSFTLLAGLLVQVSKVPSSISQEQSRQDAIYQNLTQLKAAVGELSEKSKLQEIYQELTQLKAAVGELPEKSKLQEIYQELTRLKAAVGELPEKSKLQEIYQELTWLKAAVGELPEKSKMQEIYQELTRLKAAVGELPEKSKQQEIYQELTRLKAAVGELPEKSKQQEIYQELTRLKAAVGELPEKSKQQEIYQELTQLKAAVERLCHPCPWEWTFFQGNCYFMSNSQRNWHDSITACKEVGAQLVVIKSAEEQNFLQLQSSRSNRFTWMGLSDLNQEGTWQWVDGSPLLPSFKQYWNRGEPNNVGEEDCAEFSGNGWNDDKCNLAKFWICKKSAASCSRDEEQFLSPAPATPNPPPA
# assay: Binding affinity to DC-SIGN extracellular domain (unknown origin) expressed in Escherichia coli after 1 hr by ELISA
Where a SMILES comes first, the peptide text is derived from it. The star is where a group is joined. X1 = O=C(/C=N/O[C@H]1O[C@H](CO)[C@@H](O)[C@H](O)[C@@H]1O)*; X2 = O=C(/C=N/O[C@H]1O[C@H](CO)[C@H](O)[C@H](O)[C@H]1O)*
endpoint: EC50

compound	measurement
CSCC[C@H](NC(=O)/C=N/O[C@H]1O[C@H](CO)[C@H](O)[C@H](O)[C@H]1O)C(=O)N1CCC[C@H]1C(=O)N[C@@H](C)C(=O)N[C@@H](Cc1c[nH]c2ccccc12)C(=O)N[C@@H](CCCNC(=N)N)C(=O)N[C@@H](Cc1cnc[nH]1)C(=O)N[C@@H](C)C(N)=O (X2-MPAWRHA-NH2)	3.7 ×10¹⁰ PFU
CC[C@H](C)[C@H](NC(=O)[C@H](CO)NC(=O)[C@H](CO)NC(=O)/C=N/O[C@H]1O[C@H](CO)[C@@H](O)[C@H](O)[C@@H]1O)C(=O)N[C@H](C(=O)N[C@@H](Cc1cnc[nH]1)C(=O)N[C@@H](C)C(=O)N1CCC[C@H]1C(=O)N[C@@H](CO)C(N)=O)[C@@H](C)O (stereo in doubt)	2.8 ×10⁹ PFU
CSCC[C@H](NC(=O)/C=N/O[C@H]1O[C@H](CO)[C@@H](O)[C@H](O)[C@@H]1O)C(=O)N1CCC[C@H]1C(=O)N[C@@H](C)C(=O)N[C@@H](Cc1c[nH]c2ccccc12)C(=O)N[C@@H](CCCNC(=N)N)C(=O)N[C@@H](Cc1cnc[nH]1)C(=O)N[C@@H](C)C(N)=O (X1-MPAWRHA-NH2)	4 ×10⁸ PFU
